Kindly state viability, T/C for each of the entries shown.
Tested on: 991263-137-R1-J2-PDC complex spheroid viability
Test: Anticancer human tumor 991263-137-R1-J2-PDC patient-derived colon adenocarcinoma cell line growth inhibition [POLQ]
Details: second compound 0.316 µM; first compound 1 µM; stronger effect = lower value
Write the figure, then the unit, nothing else.

Example entries begin here.
>>> result("CCc1cc2c(N3CCc4c(cc(Cn5ccnc5)cc4-c4cn(C)nc4C(F)(F)F)C3=O)cc(C)nc2c(OC)n1 + Cc1cccc(N(C)C(=O)C2C(O)CCN2c2nc(C)cc(C(F)(F)F)c2C#N)c1")
"91.4%"
>>> result("O=C(c1cc(Cc2n[nH]c(=O)c3ccccc23)ccc1F)N1CCN(C(=O)C2CC2)CC1 + Nc1ccc(C#CCN(C(=O)Cc2ncc(C(F)(F)F)cc2C(F)(F)F)c2ccc(F)cc2)nn1")
"97%"

# context switch: different compound, same viability, T/C
Task: Reported viability, T/C, compound C#Cc1c(F)ccc2cc(O)cc(-c3ncc4c(N5CC6CCC(C5)N6)nc(OCC56CCCN5CC(F)C6)nc4c3F)c12 (stereo not drawn) + COC1C(OC(N)=O)C(O)C(Oc2ccc3c(O)c(NC(=O)c4ccc(O)c(CC=C(C)C)c4)c(=O)oc3c2C)OC1(C)C : ____
Result: 91.5%

====

Tested on: 991263-137-R1-J2-PDC complex spheroid viability
Test: Anticancer human tumor 991263-137-R1-J2-PDC cell line growth inhibition [POLQ];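 note: spheroids exposed to compounds for 7 days before readout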;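 for viability, T/C: 100% = DMSO vehicle control viability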
Settings: second compound 10 µM; first compound 0.1 µM; stronger effect = lower value
READOUT NAME: viability, T/C (%)
Give bare numbers, in %.

>>> numeric_readout("O=C(c1cc(Cc2n[nH]c(=O)c3ccccc23)ccc1F)N1CCN(C(=O)C2CC2)CC1 + Cc1cccc(N(C)C(=O)C2C(O)CCN2c2nc(C)cc(C(F)(F)F)c2C#N)c1")
101
>>> numeric_readout("CC1COCCN1c1cc(C2(O)CC3CCC(C2)O3)c2cnn(-c3ccn[nH]3)c2n1 (stereo unspecified) + Cc1cccc(N(C)C(=O)C2C(O)CCN2c2nc(C)cc(C(F)(F)F)c2C#N)c1")
98.8
>>> numeric_readout("Nc1ccn(C2OC(CO)C(O)C2(F)F)c(=O)n1 (stereo unspecified) + COC1C(OC(N)=O)C(O)C(Oc2ccc3c(O)c(NC(=O)c4ccc(O)c(CC=C(C)C)c4)c(=O)oc3c2C)OC1(C)C")
75.7
>>> numeric_readout("COc1cccc2c1C(=O)c1c(O)c3c(c(O)c1C2=O)CC(O)(C(=O)CO)CC3OC1CC(N)C(O)C(C)O1 (stereo unspecified) + COC1C(OC(N)=O)C(O)C(Oc2ccc3c(O)c(NC(=O)c4ccc(O)c(CC=C(C)C)c4)c(=O)oc3c2C)OC1(C)C")
106
>>> numeric_readout("Cn1ncnc1[C@H]1c2n[nH]c(=O)c3cc(F)cc(c23)N[C@@H]1c1ccc(F)cc1 + Nc1ccc(C#CCN(C(=O)Cc2ncc(C(F)(F)F)cc2C(F)(F)F)c2ccc(F)cc2)nn1")
110
>>> numeric_readout("Cn1ncnc1[C@H]1c2n[nH]c(=O)c3cc(F)cc(c23)N[C@@H]1c1ccc(F)cc1 + Cc1cccc(N(C)C(=O)C2C(O)CCN2c2nc(C)cc(C(F)(F)F)c2C#N)c1")
92.5
>>> numeric_readout("COc1cc(C2c3cc4c(cc3C(OC3OC5COC(C)OC5C(O)C3O)C3COC(=O)C23)OCO4)cc(OC)c1O (stereo unspecified) + COC1C(OC(N)=O)C(O)C(Oc2ccc3c(O)c(NC(=O)c4ccc(O)c(CC=C(C)C)c4)c(=O)oc3c2C)OC1(C)C")
115
>>> numeric_readout("O=c1[nH]cc(F)c(=O)[nH]1 + Nc1ccc(C#CCN(C(=O)Cc2ncc(C(F)(F)F)cc2C(F)(F)F)c2ccc(F)cc2)nn1")
101

Kindly give each listed record's viability, T/C.
1. CC1COCCN1c1cc(C2(O)CC3CCC(C2)O3)c2cnn(-c3ccn[nH]3)c2n1 (stereo unspecified) + COC1C(OC(N)=O)C(O)C(Oc2ccc3c(O)c(NC(=O)c4ccc(O)c(CC=C(C)C)c4)c(=O)oc3c2C)OC1(C)C
2. C#Cc1c(F)ccc2cc(O)cc(-c3ncc4c(N5CC6CCC(C5)N6)nc(OCC56CCCN5CC(F)C6)nc4c3F)c12 (stereo unspecified) + Nc1ccc(C#CCN(C(=O)Cc2ncc(C(F)(F)F)cc2C(F)(F)F)c2ccc(F)cc2)nn1
3. C=CC(=O)N1CCN(c2nc(=O)n(-c3c(C)ccnc3C(C)C)c3nc(-c4c(O)cccc4F)c(F)cc23)C(C)C1 (stereo unspecified) + COC1C(OC(N)=O)C(O)C(Oc2ccc3c(O)c(NC(=O)c4ccc(O)c(CC=C(C)C)c4)c(=O)oc3c2C)OC1(C)C
4. CCCS(=O)(=O)Nc1ccc(F)c(C(=O)c2c[nH]c3ncc(-c4ccc(Cl)cc4)cc23)c1F + Cc1cccc(N(C)C(=O)C2C(O)CCN2c2nc(C)cc(C(F)(F)F)c2C#N)c1
5. COc1cccc(OCCCN)c1-c1cc(Nc2cnc(C#N)cn2)n[nH]1 + COC1C(OC(N)=O)C(O)C(Oc2ccc3c(O)c(NC(=O)c4ccc(O)c(CC=C(C)C)c4)c(=O)oc3c2C)OC1(C)C
6. CC(C)n1c(=O)n(C)c2cnc3cc(F)c(-c4ccc(OCCCN5CCCCC5)nc4)cc3c21 + COC1C(OC(N)=O)C(O)C(Oc2ccc3c(O)c(NC(=O)c4ccc(O)c(CC=C(C)C)c4)c(=O)oc3c2C)OC1(C)C
7. O=c1[nH]cc(F)c(=O)[nH]1 + Cc1cccc(N(C)C(=O)C2C(O)CCN2c2nc(C)cc(C(F)(F)F)c2C#N)c1
8. O=C(c1cc(Cc2n[nH]c(=O)c3ccccc23)ccc1F)N1CCN(C(=O)C2CC2)CC1 + COC1C(OC(N)=O)C(O)C(Oc2ccc3c(O)c(NC(=O)c4ccc(O)c(CC=C(C)C)c4)c(=O)oc3c2C)OC1(C)C

Result:
[95.8, 98.2, 124, 98.5, 76.9, 119, 95.4, 94.7]

Kindly give each listed record's viability, T/C.
1. O=c1[nH]cc(F)c(=O)[nH]1 + COC1C(OC(N)=O)C(O)C(Oc2ccc3c(O)c(NC(=O)c4ccc(O)c(CC=C(C)C)c4)c(=O)oc3c2C)OC1(C)C
2. Nc1ccn(C2OC(CO)C(O)C2(F)F)c(=O)n1 (stereo unspecified) + Nc1ccc(C#CCN(C(=O)Cc2ncc(C(F)(F)F)cc2C(F)(F)F)c2ccc(F)cc2)nn1
3. COc1ccc([C@@H](O)c2cc(-c3ncnc4cc(N5CCOCC5)ccc34)c(F)cc2Cl)nn1 + Cc1cccc(N(C)C(=O)C2C(O)CCN2c2nc(C)cc(C(F)(F)F)c2C#N)c1
4. CC1COCCN1c1cc(C2(S(C)(=N)=O)CC2)nc(-c2ccnc3[nH]ccc23)n1 (stereo unspecified) + Cc1cccc(N(C)C(=O)C2C(O)CCN2c2nc(C)cc(C(F)(F)F)c2C#N)c1
5. CC1COCCN1c1cc(C2(S(C)(=N)=O)CC2)nc(-c2ccnc3[nH]ccc23)n1 (stereo unspecified) + Nc1ccc(C#CCN(C(=O)Cc2ncc(C(F)(F)F)cc2C(F)(F)F)c2ccc(F)cc2)nn1

Result:
1: 107; 2: 89.6; 3: 117; 4: 97; 5: 106

====

Test system: 991263-137-R1-J2-PDC complex spheroid viability
Assay: Anticancer human tumor 991263-137-R1-J2-PDC cell line growth inhibition [POLQ];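 note: spheroids exposed to compounds for 7 days before readout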
Conditions: curve of first compound; second compound 0.1 µM
READOUT NAME: IC50

Example entries begin here.
>>> result("COc1cc(C2c3cc4c(cc3C(OC3OC5COC(C)OC5C(O)C3O)C3COC(=O)C23)OCO4)cc(OC)c1O (centres undefined) + COC1C(OC(N)=O)C(O)C(Oc2ccc3c(O)c(NC(=O)c4ccc(O)c(CC=C(C)C)c4)c(=O)oc3c2C)OC1(C)C")
"> 10 µM"
>>> result("O=C(Nc1ccc(O)c(NS(=O)(=O)c2ccc(F)cc2)c1)c1ccc(-c2ccccc2)cc1 + COC1C(OC(N)=O)C(O)C(Oc2ccc3c(O)c(NC(=O)c4ccc(O)c(CC=C(C)C)c4)c(=O)oc3c2C)OC1(C)C")
"> 10 µM"
>>> result("COc1cc(C2c3cc4c(cc3C(OC3OC5COC(C)OC5C(O)C3O)C3COC(=O)C23)OCO4)cc(OC)c1O (centres undefined) + Nc1ccc(C#CCN(C(=O)Cc2ncc(C(F)(F)F)cc2C(F)(F)F)c2ccc(F)cc2)nn1")
"> 10 µM"

# context switch: different compound, same IC50
Task: Reported IC50, compound CC(=O)O[C@H]1C(=O)[C@@]2(C)[C@H]([C@H](OC(=O)c3ccccc3)[C@]3(O)C[C@H](OC(=O)[C@H](O)[C@@H](NC(=O)c4ccccc4)c4ccccc4)C(C)=C1C3(C)C)[C@]1(OC(C)=O)CO[C@@H]1C[C@@H]2O + Cc1cccc(N(C)C(=O)C2C(O)CCN2c2nc(C)cc(C(F)(F)F)c2C#N)c1 : ____
Result: 1.83 µM
